target: Trx-His6-MBD4 MBD (SPR) (Homo sapiens, UniProt O95243 80-148); test: SPR; SPR running buffer: 10 mM HEPES pH 7.4, 50 mM NaCl, 3 mM MgCl2, 0.1 mM EDTA, 1 mM DTT, 0.1% BSA, 0.005% polysorbate 20 (samples prepared at pH 6.5); temperature not given; NMR buffer not given (low salt, up to 100 mM NaCl in titration); conditions: protein: recombinant; tags: N-terminal thioredoxin and His6 fusion (modified pET32a), retained for SPR; label: 3' biotin on strand 1 (SPR only); blunt, one G:T mismatch (strand 1 G10, strand 2 T8)
Sequence (O95243 80-148): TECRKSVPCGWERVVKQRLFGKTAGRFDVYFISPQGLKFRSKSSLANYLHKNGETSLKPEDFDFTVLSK
EXPERIMENTAL_READOUT: Kd
The reply should consist of the numeric value with the unit placed after it.

Query mCpG/TpG mismatch (17 bp) (dsDNA, 5-methyl-C at strand 1 position 9) DNA 1: GAGGCGCTCGGCGGCAG DNA 2: CTGCCGCTGAGCGCCTC yields Kd of 11.5 µM

These measurements were taken from paper PMC4176167.
